system: HeLa Kyoto; assay: solubility in G1/S (NP-40 vs SDS abundance) (log2 ratio); higher = more soluble; conditions: cell cycle stage: G1/S;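 further: HeLa Kyoto cells arrested at G1/S by double thymidine block, proteins quantified by TMT10plex mass spectrometry in mild NP-40 versus SDS extracts, three biological replicates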
testReadout: solubility in G1/S (log2)
Lab note: record just the number, no unit beside it.

Req: State solubility in G1/S (log2) (HeLa Kyoto) of MVPAAGRRPPRVMRLLGWWQVLLWVLGLPVRGVEVAEESGRLWSEEQPAHPLQVGAVYLGEEELLHDPMGQDRAAEEANAVLGLDTQGDHMVMLSVIPGEAEDKVSSEPSGVTCGAGGAEDSRCNVRESLFSLDGAGAHFPDREEEYYTEPEVAESDAAPTEDSNNTESLKSPKVNCEERNITGLENFTLKILNMSQDLMDFLNPNGSDCTLVLFYTPWCRFSASLAPHFNSLPRAFPALHFLALDASQHSSLSTRFGTVAVPNILLFQGAKPMARFNHTDRTLETLKIFIFNQTGIEAKKNVVVTQADQIGPLPSTLIKSVDWLLVFSLFFLISFIMYATIRTESIRWLIPGQEQEHVE [TXNDC15] .
Resp: 0.719

Req: Quote HeLa Kyoto solubility in G1/S (log2) for entry MALKQISSNKCFGGLQKVFEHDSVELNCKMKFAVYLPPKAETGKCPALYWLSGLTCTEQNFISKSGYHQSASEHGLVVIAPDTSPRGCNIKGEDESWDFGTGAGFYVDATEDPWKTNYRMYSYVTEELPQLINANFPVDPQRMSIFGHSMGGHGALICALKNPGKYKSVSAFAPICNPVLCPWGKKAFSGYLGTDQSKWKAYDATHLVKSYPGSQLDILIDQGKDDQFLLDGQLLPDNFIAACTEKKIPVVFRLQEGYDHSYYFIATFITDHIRHHAKYLNA [ESD] .
Resp: -0.0889
